// viability, T/C lookup, one value per entry
Test system: 996289-038-R-J1-PDC complex spheroid viability
Assay: Anticancer human tumor 996289-038-R-J1-PDC patient-derived colon adenocarcinoma cell line growth inhibition [CLK]
Settings: second compound 1 µM; first compound 1 µM; stronger effect = lower value
Report the value in % with no unit label.

CC(Nc1ccc2c(c1)OCCn1cc(N3C(=O)OCC3C(F)F)nc1-2)C(N)=O (stereo not drawn) + CN1CCN(c2cc(C(=O)Nc3cc4cc(-c5cnn(C)c5)ccc4cn3)ccn2)CC1 :: 1.58

Return reported viability, T/C; argument: CCN1CCN(Cc2ccc(Nc3ncc(F)c(-c4cc(F)c5nc(C)n(C(C)C)c5c4)n3)nc2)CC1 + CN1CCN(c2cc(C(=O)Nc3cc4cc(-c5cnn(C)c5)ccc4cn3)ccn2)CC1
2.91

Now the compound Nc1ccn(C2OC(CO)C(O)C2(F)F)c(=O)n1 (stereo not drawn) + CN1CCN(c2cc(C(=O)Nc3cc4cc(-c5cnn(C)c5)ccc4cn3)ccn2)CC1
6.26

* * *

Test system: 996289-038-R-J1-PDC complex spheroid viability
Experiment: Anticancer human tumor 996289-038-R-J1-PDC cell line growth inhibition [CLK]; active = viability on the fitted dose curve at most 10% of control; inactive = the rest;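 also: spheroids exposed to the agents for 7 days before readout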
Settings: second compound 3.16 µM; first compound 0.0949 µM
Outcomes you can answer with include only these: Yes (active), No (inactive)

Consider the following illustrative entries.
NC(=O)C(=Cn1cnc(-c2cc(C(F)(F)F)cc(C(F)(F)F)c2)n1)c1cncnc1 + CN1CCN(c2cc(C(=O)Nc3cc4cc(-c5cnn(C)c5)ccc4cn3)ccn2)CC1 :: Yes
NC(=O)C(=Cn1cnc(-c2cc(C(F)(F)F)cc(C(F)(F)F)c2)n1)c1cncnc1 + CNC(=O)c1ccc(Nc2nc(OC3CCCC3)c3c(-c4ccc5nc(C)oc5c4)c[nH]c3n2)c(OC)c1 :: No

Please indicate how the test categorized C=CC(=O)Nc1cc(Nc2nccc(-c3cn(C)c4ccccc34)n2)c(OC)cc1N(C)CCN(C)C + CN1CCN(c2cc(C(=O)Nc3cc4cc(-c5cnn(C)c5)ccc4cn3)ccn2)CC1 .
Yes

* * *

Test system: 996289-038-R-J1-PDC complex spheroid viability
Experiment: Anticancer human tumor 996289-038-R-J1-PDC cell line growth inhibition [CLK]; active = viability on the fitted dose curve at most 10% of control; inactive = the rest;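 also: spheroids exposed to the agents for 7 days before readout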
Conditions: second compound 1 µM; first compound 3.16 µM
Pick from active, inactive when you respond.

Below, 4 compounds whose answers are already recorded.
CC(Nc1ccc2c(c1)OCCn1cc(N3C(=O)OCC3C(F)F)nc1-2)C(N)=O (stereo not given) + CN1CCN(c2cc(C(=O)Nc3cc4cc(-c5cnn(C)c5)ccc4cn3)ccn2)CC1 :: active
C=C(F)C(=O)N1CCN(c2nc(OCC3CCCN3C)nc3c2CCN(c2cccc4cccc(Cl)c24)C3)CC1CC#N (stereo not given) + CNC(=O)c1ccc(Nc2nc(OC3CCCC3)c3c(-c4ccc5nc(C)oc5c4)c[nH]c3n2)c(OC)c1 :: inactive
CC1(C)CCC(CN2CCN(c3ccc(C(=O)NS(=O)(=O)c4ccc(NCC5CCOCC5)c([N+](=O)[O-])c4)c(Oc4cnc5[nH]ccc5c4)c3)CC2)=C(c2ccc(Cl)cc2)C1 + CN1CCN(c2cc(C(=O)Nc3cc4cc(-c5cnn(C)c5)ccc4cn3)ccn2)CC1 :: active
COc1ccc([C@@H](O)c2cc(-c3ncnc4cc(N5CCOCC5)ccc34)c(F)cc2Cl)nn1 + CNC(=O)c1ccc(Nc2nc(OC3CCCC3)c3c(-c4ccc5nc(C)oc5c4)c[nH]c3n2)c(OC)c1 :: inactive

Here's the next entry for you.
Write down the call the test reported for this compound. Item: CCCS(=O)(=O)Nc1ccc(F)c(C(=O)c2c[nH]c3ncc(-c4ccc(Cl)cc4)cc23)c1F + CNC(=O)c1ccc(Nc2nc(OC3CCCC3)c3c(-c4ccc5nc(C)oc5c4)c[nH]c3n2)c(OC)c1
inactive

* * *

System: 996289-038-R-J1-PDC complex spheroid viability
Test: Anticancer human tumor 996289-038-R-J1-PDC cell line growth inhibition [CLK]; active means viability on the fitted dose curve at most 10% of control; inactive means the rest;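 also: spheroids exposed to the agents for 7 days before readout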
Details: second compound 0.316 µM; first compound 1 µM
The reply should be one of these categories: active, inactive

As a guide, the following entries are already answered.
CC1COCCN1c1cc(C2(S(C)(=N)=O)CC2)nc(-c2ccnc3[nH]ccc23)n1 (stereo not given) + CN1CCN(c2cc(C(=O)Nc3cc4cc(-c5cnn(C)c5)ccc4cn3)ccn2)CC1 :: inactive
COc1c(OCCCN2CCOCC2)ccc2c3n(c(=NC(=O)c4cnc(N)nc4)nc12)CCN3 + CN1CCN(c2cc(C(=O)Nc3cc4cc(-c5cnn(C)c5)ccc4cn3)ccn2)CC1 :: active
C=C(F)C(=O)N1CCN(c2nc(OCC3CCCN3C)nc3c2CCN(c2cccc4cccc(Cl)c24)C3)CC1CC#N (stereo not given) + CNC(=O)c1ccc(Nc2nc(OC3CCCC3)c3c(-c4ccc5nc(C)oc5c4)c[nH]c3n2)c(OC)c1 :: inactive

Dear colleague, could you share the recorded outcome for CC1(C)CCC(CN2CCN(c3ccc(C(=O)NS(=O)(=O)c4ccc(NCC5CCOCC5)c([N+](=O)[O-])c4)c(Oc4cnc5[nH]ccc5c4)c3)CC2)=C(c2ccc(Cl)cc2)C1 + CN1CCN(c2cc(C(=O)Nc3cc4cc(-c5cnn(C)c5)ccc4cn3)ccn2)CC1 when you have a moment?
inactive

Same question for C#Cc1c(F)ccc2cc(O)cc(-c3ncc4c(N5CC6CCC(C5)N6)nc(OCC56CCCN5CC(F)C6)nc4c3F)c12 (stereo not given) + CN1CCN(c2cc(C(=O)Nc3cc4cc(-c5cnn(C)c5)ccc4cn3)ccn2)CC1 please.
inactive

Also need CCCS(=O)(=O)Nc1ccc(F)c(C(=O)c2c[nH]c3ncc(-c4ccc(Cl)cc4)cc23)c1F + CNC(=O)c1ccc(Nc2nc(OC3CCCC3)c3c(-c4ccc5nc(C)oc5c4)c[nH]c3n2)c(OC)c1 , thanks.
inactive

Try CC(Nc1ccc2c(c1)OCCn1cc(N3C(=O)OCC3C(F)F)nc1-2)C(N)=O (stereo not given) + CN1CCN(c2cc(C(=O)Nc3cc4cc(-c5cnn(C)c5)ccc4cn3)ccn2)CC1 next.
inactive

Moving on to the next compound: CC(=O)O[C@H]1C(=O)[C@@]2(C)[C@H]([C@H](OC(=O)c3ccccc3)[C@]3(O)C[C@H](OC(=O)[C@H](O)[C@@H](NC(=O)c4ccccc4)c4ccccc4)C(C)=C1C3(C)C)[C@]1(OC(C)=O)CO[C@@H]1C[C@@H]2O + CNC(=O)c1ccc(Nc2nc(OC3CCCC3)c3c(-c4ccc5nc(C)oc5c4)c[nH]c3n2)c(OC)c1
inactive

Then CCN1CCN(Cc2ccc(Nc3ncc(F)c(-c4cc(F)c5nc(C)n(C(C)C)c5c4)n3)nc2)CC1 + CN1CCN(c2cc(C(=O)Nc3cc4cc(-c5cnn(C)c5)ccc4cn3)ccn2)CC1 ?
inactive

Try this compound too: COC1C=CCC(C)C(C)S(=O)(=O)NC(=O)c2ccc3c(c2)N(CC2CCC21)CC1(CCCc2cc(Cl)ccc21)CO3 (stereo not given) + CNC(=O)c1ccc(Nc2nc(OC3CCCC3)c3c(-c4ccc5nc(C)oc5c4)c[nH]c3n2)c(OC)c1
inactive

* * *

Tested on: 996289-038-R-J1-PDC complex spheroid viability
Test: Anticancer human tumor 996289-038-R-J1-PDC cell line growth inhibition [CLK];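 also: spheroids exposed to the agents for 7 days before readout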
Conditions: second compound 3.16 µM; first compound 0.316 µM; stronger effect = lower value
Threshold-based label: viability, T/C under 4% gives Yes, viability, T/C not under 4% gives No.

COc1ccc([C@@H](O)c2cc(-c3ncnc4cc(N5CCOCC5)ccc34)c(F)cc2Cl)nn1 + CNC(=O)c1ccc(Nc2nc(OC3CCCC3)c3c(-c4ccc5nc(C)oc5c4)c[nH]c3n2)c(OC)c1 :: No

Please determine if O=c1[nH]cc(F)c(=O)[nH]1 + CNC(=O)c1ccc(Nc2nc(OC3CCCC3)c3c(-c4ccc5nc(C)oc5c4)c[nH]c3n2)c(OC)c1 is below 4% in terms of viability, T/C.
No

Subsequent entry: COC1C=CCC(C)C(C)S(=O)(=O)NC(=O)c2ccc3c(c2)N(CC2CCC21)CC1(CCCc2cc(Cl)ccc21)CO3 (stereo not given) + CN1CCN(c2cc(C(=O)Nc3cc4cc(-c5cnn(C)c5)ccc4cn3)ccn2)CC1
Yes

* * *

Known viability, T/C of a selection of molecules
Tested on: 996289-038-R-J1-PDC complex spheroid viability
Experiment: Anticancer human tumor 996289-038-R-J1-PDC cell line growth inhibition [CLK];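 also: spheroids exposed to the agents for 7 days before readout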
Conditions: second compound 1 µM; first compound 3.16 µM; stronger effect = lower value

Which viability, T/C is reported with 996289-038-R-J1-PDC complex spheroid viability for this entry: CC(=O)O[C@H]1C(=O)[C@@]2(C)[C@H]([C@H](OC(=O)c3ccccc3)[C@]3(O)C[C@H](OC(=O)[C@H](O)[C@@H](NC(=O)c4ccccc4)c4ccccc4)C(C)=C1C3(C)C)[C@]1(OC(C)=O)CO[C@@H]1C[C@@H]2O + CNC(=O)c1ccc(Nc2nc(OC3CCCC3)c3c(-c4ccc5nc(C)oc5c4)c[nH]c3n2)c(OC)c1 ?
62.9%

Now try Nc1ccn(C2OC(CO)C(O)C2(F)F)c(=O)n1 (configuration not stated) + CNC(=O)c1ccc(Nc2nc(OC3CCCC3)c3c(-c4ccc5nc(C)oc5c4)c[nH]c3n2)c(OC)c1 .
48.9%

Data provenance: PubChem BioAssay AID2060600
